experiment: clinical; conditions: male, human, in vivo, po, AUC0-tau, GM (CV %)
value.type: AUC (µg·h/mL)

molecule="CCCC(CCC)C(=O)O [VPA, valproic acid]" value_type=AUC recorded_number=518
